Tested on: proliferating hemangioma cells
Test: Experiment 7: different ACEi and beta blockers on one primary cell line, MTT
Assay type: cell-based, human
Conditions: Homo sapiens, 72 h, 1 μM; read-out: Inhibition vs. Cells + Adjuvant at 72 Hours
MEASURED_ENDPOINT: inhibition at 1 µM

[Q] Please state recorded inhibition at 1 µM (tested on proliferating hemangioma cells) of CC(C)(C)NC[C@H](O)COc1nsnc1N1CCOCC1
[A] 11.1%

[Q] Please state recorded inhibition at 1 µM (tested on proliferating hemangioma cells) of CCOC(=O)[C@H](CCc1ccccc1)N[C@@H](C)C(=O)N1CCC[C@H]1C(=O)O
[A] 1.55%

[Q] Please state recorded inhibition at 1 µM (tested on proliferating hemangioma cells) of CCOC(=O)[C@H](CCc1ccccc1)N[C@@H](C)C(=O)N1Cc2ccccc2C[C@H]1C(=O)O
[A] 4.87%

[Q] Please state recorded inhibition at 1 µM (tested on proliferating hemangioma cells) of CCOC(=O)[C@H](CCc1ccccc1)N[C@@H](C)C(=O)N1[C@H](C(=O)O)C[C@@H]2CCC[C@@H]21
[A] < 0%
